procedure_text: Selectivity ratio of MNTD for human RD cells to EC50 for HSV1
Type: ADME, cell-based
measured_metric: selectivity ratio
// no unit string in output, number only

- substance_smiles: "CCCCCCCCCCCCCCCC(=O)OC[C@H](O)[C@H]1OC(=O)C(O[C@H]2O[C@H](CO)[C@@H](O)[C@H](O)[C@H]2O)=C1O"
  measured_metric: "selectivity ratio"
  obs_value: 19.2
- substance_smiles: "COC1=C(OC)[C@@H]([C@@H](O)CO)OC1=O"
  measured_metric: "selectivity ratio"
  obs_value: 1.1

# ---- query compound ----
Notebook: O=C1O[C@H]([C@@H](O)CO)C(O)=C1O[C@H]1O[C@H](CO)[C@@H](O)[C@H](O)[C@H]1O , selectivity ratio read as 72.7

###

procedure_text: Cytotoxicity against human RD cells assessed maximun non-toxic concentration
Format: cell-based
measured_metric: MNTC (mM)
Output spec: scalar in mM, unitless text.

The molecule COC1=C(OC)[C@@H]([C@@H](O)CO)OC1=O showed MNTC equal to 1.96

The reported MNTC of the molecule O=C1O[C@H]([C@@H](O)CO)C(O)=C1O[C@H]1O[C@H](CO)[C@@H](O)[C@H](O)[C@H]1O was 1.18

###

Tested on: Human alphaherpesvirus 1
procedure_text: Antiviral activity against Herpes simplex virus type 1 infected in human RD cells assessed as inhibition of virus-induced cytopathic effect
Format: functional, organism-based
measurement_conditions: Human alphaherpesvirus 1, RD
measured_metric: EC50

- compound: "O=C1O[C@H]([C@@H](O)CO)C(O)=C1O"
  obs_value: "> 2270 µM"

EC50 reported for this compound CCCCCCCCCCCCCCCC(=O)OC[C@H](O)[C@H]1OC(=O)C(O)=C1O [ASCORBYL PALMITATE] : > 240 µM

EC50 for COC1=C(OC)[C@@H]([C@@H]2COC(C)(C)O2)OC1=O is > 1640 µM

###

procedure_text: Selectivity ratio of MNTD for human RD cells to EC50 for HSV1
Assay type: ADME, cell-based
# selectivity ratio values compiled below

Use these answered entries as a reference point.
- molecule: "CCCCCCCCCCCCCCCC(=O)OC[C@H](O)[C@H]1OC(=O)C(O)=C1O [ASCORBYL PALMITATE]"
  selectivity ratio: "< 1"
- molecule: "O=C1O[C@H]([C@@H](O)CO)C(O)=C1O"
  selectivity ratio: "< 1"

Now let's try a different one.
For COC1=C(OC)[C@@H]([C@@H]2COC(C)(C)O2)OC1=O the molecule record lists selectivity ratio as < 1

###

Form field: MNTC (one value per entry).
procedure_text: Cytotoxicity against human RD cells assessed maximun non-toxic concentration
Format: cell-based
Unit µM implied. Number only.

- compound: "O=C1O[C@H]([C@@H](O)CO)C(O)=C1O"
  obs_value: 2270
- compound: "CCCCCCCCCCCCCCCC(=O)OC[C@H](O)[C@H]1OC(=O)C(O)=C1O [ASCORBYL PALMITATE]"
  obs_value: 240

Memo: COC1=C(OC)[C@@H]([C@@H]2COC(C)(C)O2)OC1=O , reported MNTC: 1640

Input CCCCCCCCCCCCCCCC(=O)OC[C@H](O)[C@H]1OC(=O)C(O[C@H]2O[C@H](CO)[C@@H](O)[C@H](O)[C@H]2O)=C1O . Output MNTC: 86.8
